# system-under-test: wild-type un-phosphorylated FGFR2 (Homo sapiens, UniProt P21802)
# Sequence (P21802 22-821): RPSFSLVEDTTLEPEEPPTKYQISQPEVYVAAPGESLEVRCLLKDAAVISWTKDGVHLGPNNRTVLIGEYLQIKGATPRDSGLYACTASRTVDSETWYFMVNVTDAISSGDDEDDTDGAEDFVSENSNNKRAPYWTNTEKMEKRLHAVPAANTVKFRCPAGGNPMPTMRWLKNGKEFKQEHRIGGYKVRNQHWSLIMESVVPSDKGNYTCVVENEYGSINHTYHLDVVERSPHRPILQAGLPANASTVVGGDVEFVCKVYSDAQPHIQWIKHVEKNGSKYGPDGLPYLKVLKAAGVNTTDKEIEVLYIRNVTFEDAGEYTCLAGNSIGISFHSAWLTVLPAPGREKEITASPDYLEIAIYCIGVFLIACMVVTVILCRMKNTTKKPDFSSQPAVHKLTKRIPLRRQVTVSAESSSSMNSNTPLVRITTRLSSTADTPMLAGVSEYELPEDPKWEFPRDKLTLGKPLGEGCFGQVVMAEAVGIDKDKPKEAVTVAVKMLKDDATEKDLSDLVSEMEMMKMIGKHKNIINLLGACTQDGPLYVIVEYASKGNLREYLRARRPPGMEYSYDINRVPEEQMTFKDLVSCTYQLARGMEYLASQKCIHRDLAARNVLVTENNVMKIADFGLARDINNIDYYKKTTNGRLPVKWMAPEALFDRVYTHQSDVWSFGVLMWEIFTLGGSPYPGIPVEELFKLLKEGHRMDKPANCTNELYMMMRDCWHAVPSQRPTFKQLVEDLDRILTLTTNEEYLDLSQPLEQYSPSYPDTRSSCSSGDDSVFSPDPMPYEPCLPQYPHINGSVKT
# protocol-notes: FGFR Enzymatic Assay (FRET peptide phosphorylation), FGFR2
pIC50: −log10 of the molar value.
measurement-name: pIC50

Item: COc1cc2[nH]nc(-c3cnn(C4CN(S(C)(=O)=O)C4)c3)c2nc1-c1cccc2c1CCC2 [Example 23] | pIC50: > 8.22

pIC50 measured on COc1cc2[nH]nc(-c3cnn([C@@H]4CCN(C(=O)[C@@H]5COCCN5C)C4)c3)c2nc1-c1cccc2c1CCC2 [Example 137] = > 8.22

Input COc1cc2[nH]nc(-c3cnn(C4CN(C(=O)C5CC5)C4)c3)c2nc1-c1cccc2c1CCC2 [Example 25] . Output pIC50: > 8.22

Measured pIC50, COc1cc2[nH]nc(-c3ccc(N4CCN(CCO)CC4)nc3)c2nc1-c1cccc(CC#N)c1C [Example 89] : > 8.22
